B1: TRIM43 (parent)
chain: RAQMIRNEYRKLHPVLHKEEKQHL

Variants of: B1
ASSAY_EXPLANATION: protein stability index of a GFP-peptide fusion (GPS, HEK-293T) (PSI 1-6); higher = more stable;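 also: lentivirally expressed fusions sorted by FACS into six bins by GFP to DsRed ratio, PSI derived from sequencing read proportions per bin multiplied by bin number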
CONDITIONS_USED: c terminus: a fixed tail appended
Quick rule: protein stability index of at least 3 means MET, below that means NOT MET.

Qu. Reported protein stability index at or above 3? YAQMIRNEYRKLHPVLHKEEKQHL [R1Y]
Ans. NOT MET

Qu. Check RAQMIQNEYRKLHPVLHKEEKQHL [R6Q] too.
Ans. MET

Qu. Check RAQMDRNEYRKLHPVLHKEEKQHL [I5D] too.
Ans. MET

Qu. Check RAQDIRNEYRKLHPVLHKEEKQHL [M4D] too.
Ans. MET

Qu. Check RAQMIRNEYRELHPVLHKEEKQHL [K11E] too.
Ans. MET

Qu. Check RAQMIRNEYRKLHPDLHKEEKQHL [V15D] too.
Ans. MET

Qu. Check RAQMIRNEYRKLHPVLHKEEYQHL [K21Y] too.
Ans. NOT MET

Qu. Check RAQMERNEYRKLHPVLHKEEKQHL [I5E] too.
Ans. MET

Qu. Check RAQMIRNEYRKLHPVLHKEEKEHL [Q22E] too.
Ans. MET

Qu. Check RAQMIRVEYRKLHPVLHKEEKQHL [N7V] too.
Ans. NOT MET

Qu. Check RAQMIRNEYRKLHPVLWKEEKQHL [H17W] too.
Ans. NOT MET

Qu. Check RAQMIRNEYRKLYPVLHKEEKQHL [H13Y] too.
Ans. NOT MET

Qu. Check RAQMIRNEYRKLHPVLHKEEKQYL [H23Y] too.
Ans. NOT MET

Qu. Check RAQMIRNECRKLHPVLHKEEKQHL [Y9C] too.
Ans. MET

Qu. Check RAQMIRNEYRKLHPVLHNEEKQHL [K18N] too.
Ans. MET

Qu. Check RAYMIRNEYRKLHPVLHKEEKQHL [Q3Y] too.
Ans. NOT MET

Qu. Check RAQMIRNEYRKLHPVLHKEEKFHL [Q22F] too.
Ans. NOT MET

Qu. Check RAQMIRNEYRKLHPVLHKEEHQHL [K21H] too.
Ans. MET

Qu. Check RAQMIRNEYRKMHPVLHKEEKQHL [L12M] too.
Ans. NOT MET

Qu. Check RHQMIRNEYRKLHPVLHKEEKQHL [A2H] too.
Ans. MET

Measured values drawn from the supplement of paper PMC10567573 for this set.
